B1: LOXL2 (parent)
chain: HISSCKLGPQVSLDPMKNVTCENG

# Variants of: B1
# methodNotes: protein stability index of a GFP-peptide fusion (GPS, HEK-293T) (PSI 1-6); higher = more stable;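 note: lentivirally expressed fusions sorted by FACS into six bins by GFP to DsRed ratio, PSI derived from sequencing read proportions per bin multiplied by bin number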
# settings: c terminus: a fixed tail appended

variantNotation	protein stability index
S3C	2.78
I2H	3.53
L13P	4.22
G8E	4.53
L7P	4.51
S3W	3.14
G24A	3.65
V11E	4.58
S4M	3.94
K17H	4.03
V19A	4.32
G24S	4.25
N18H	3.81
G24P	3.79

Cited source: the supplement of paper PMC10567573
